# target.entity: Corticotropin-releasing factor receptor 2/Corticotropin-releasing factor-binding protein (Homo sapiens, UniProt P24387+Q13324)
# Sequence (Q13324 whole entry): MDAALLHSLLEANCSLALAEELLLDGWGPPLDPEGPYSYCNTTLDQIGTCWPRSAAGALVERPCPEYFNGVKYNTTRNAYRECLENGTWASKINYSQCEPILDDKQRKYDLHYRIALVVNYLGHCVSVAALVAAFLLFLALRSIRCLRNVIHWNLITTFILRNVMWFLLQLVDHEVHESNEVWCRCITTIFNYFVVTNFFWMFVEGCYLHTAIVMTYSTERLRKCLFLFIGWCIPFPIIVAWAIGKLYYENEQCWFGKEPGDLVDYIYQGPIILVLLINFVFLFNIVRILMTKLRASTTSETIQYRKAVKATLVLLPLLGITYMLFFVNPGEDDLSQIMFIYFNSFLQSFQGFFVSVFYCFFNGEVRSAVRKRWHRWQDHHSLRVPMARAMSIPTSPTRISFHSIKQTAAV
# Sequence (P24387 whole entry): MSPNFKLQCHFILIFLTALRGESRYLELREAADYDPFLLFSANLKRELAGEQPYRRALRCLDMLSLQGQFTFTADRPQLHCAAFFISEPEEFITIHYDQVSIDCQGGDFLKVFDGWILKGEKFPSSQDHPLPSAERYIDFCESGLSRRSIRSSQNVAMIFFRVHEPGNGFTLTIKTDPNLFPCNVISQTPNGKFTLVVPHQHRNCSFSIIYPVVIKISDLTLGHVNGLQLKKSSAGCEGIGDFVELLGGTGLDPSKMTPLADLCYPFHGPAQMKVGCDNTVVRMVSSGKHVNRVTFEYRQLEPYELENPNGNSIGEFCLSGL
# measurement.description: Dose Response confirmation of uHTS hits for small molecule antagonists of the CRF-binding protein and CRF-R2 receptor complex.
# Assay type: functional
# run.conditions: read-out: IC50_Mean
Active and inactive are the calls of the source.
Choose one outcome from this list and give only that: active, inactive

O=C(O)CN1C(c2ccccc2O)Nc2ccc(Br)cc2C1c1ccccc1 (stereo unspecified) : active

Please turn your attention to the following entry.
Outcome? COc1ccccc1NS(=O)(=O)c1ccc(N/N=C/c2c(C)nn(-c3ccccc3)c2N2CCCC2)c([N+](=O)[O-])c1
inactive

* * *

# target.entity: Heat shock protein HSP 90-alpha (Homo sapiens, UniProt P07900)
# Type: functional, organism-based
Active and inactive are the calls of the source.
Property: AC50; scope: individual molecules

Some solved entries appear below for comparison.
O=[N+]([O-])c1ccc(S(=O)(=O)c2cccc(C(F)(F)F)c2)nc1 : 1.84 µM (active)
Cc1ccc2c(c1)C(=O)C(=O)N2Cc1ccc(C(F)(F)F)cc1 : 7.94 µM (active)
O=c1c(-c2ccccc2)c(-c2ccccc2)oc2cc(O)cc(O)c12 : 7.78 µM (active)
O=C(N/N=C/c1cc2c3c(c1O)CCCN3CCC2)c1ccccc1O : 2.14 µM (active)
Cc1cc(N=Nc2ccc3ccccc3c2)ccc1O : 3.92 µM (active)

Below: the item to evaluate.
Provide only the value of recorded AC50 for COc1cc(OC)cc(N2C(=O)CC(N3CCC(C(=O)N4CCCCC4)CC3)C2=O)c1 (stereo unspecified)
8.16 µM (active)

* * *

# target.entity: Aminopeptidase N (Plasmodium falciparum FcB1/Columbia, UniProt O96935)
# Sequence (O96935 whole entry): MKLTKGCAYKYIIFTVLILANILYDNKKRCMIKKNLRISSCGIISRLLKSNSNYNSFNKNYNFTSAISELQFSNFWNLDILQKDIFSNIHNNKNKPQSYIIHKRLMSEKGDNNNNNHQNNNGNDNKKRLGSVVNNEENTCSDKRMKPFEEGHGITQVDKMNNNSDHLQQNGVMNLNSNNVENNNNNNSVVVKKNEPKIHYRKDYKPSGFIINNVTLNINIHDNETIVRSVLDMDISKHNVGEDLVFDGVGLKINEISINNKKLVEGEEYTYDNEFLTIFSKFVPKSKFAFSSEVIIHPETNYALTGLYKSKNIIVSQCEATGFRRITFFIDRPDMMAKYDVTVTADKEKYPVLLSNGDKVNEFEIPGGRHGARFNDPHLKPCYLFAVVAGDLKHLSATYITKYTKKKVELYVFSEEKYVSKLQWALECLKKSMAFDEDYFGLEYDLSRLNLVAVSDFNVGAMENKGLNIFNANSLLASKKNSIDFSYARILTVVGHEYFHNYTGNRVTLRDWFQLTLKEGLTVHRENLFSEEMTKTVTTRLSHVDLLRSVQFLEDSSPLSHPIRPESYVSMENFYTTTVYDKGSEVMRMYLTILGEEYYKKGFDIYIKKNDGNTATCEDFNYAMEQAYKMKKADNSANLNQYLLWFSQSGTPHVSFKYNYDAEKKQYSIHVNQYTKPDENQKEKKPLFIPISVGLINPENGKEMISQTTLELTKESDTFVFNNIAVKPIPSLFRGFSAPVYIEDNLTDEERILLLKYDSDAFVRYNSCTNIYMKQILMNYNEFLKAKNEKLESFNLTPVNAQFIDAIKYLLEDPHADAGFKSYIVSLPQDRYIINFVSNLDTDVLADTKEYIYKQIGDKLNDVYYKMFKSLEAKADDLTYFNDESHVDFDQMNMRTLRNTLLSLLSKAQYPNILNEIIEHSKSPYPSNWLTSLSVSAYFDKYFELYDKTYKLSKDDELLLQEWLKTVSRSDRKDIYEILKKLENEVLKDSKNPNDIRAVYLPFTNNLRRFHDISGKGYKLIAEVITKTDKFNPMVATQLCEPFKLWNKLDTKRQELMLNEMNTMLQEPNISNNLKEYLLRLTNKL
# measurement.description: P. falciparum M1AAP inhibitors, biochemical, fluorogenic H-Leu-NHMec substrate, 1536-well (AID 1445)
# Parameters: species or system Plasmodium falciparum 3D7, 3D7
Calls of active or inactive are those of the source.
measured.quantity: IC50

These recorded examples may help you get a feel for the data.
CCCCn1c(NS(=O)(=O)c2ccccc2)c(C(=O)OCC)c2nc3ccccc3nc21 : 74.4 µM (active)
O=C(NN1C(=O)c2ccccc2NC12CCCCC2)c1ccccc1 : 6.87 µM (active)
COc1cc(/C=C2\SC(=O)N(CC(=O)Nc3cccc(C)c3)C2=O)cc([N+](=O)[O-])c1O : 40.8 µM (active)
N#Cc1c(O)nc(SCC(=O)c2cccs2)nc1-c1cccs1 : 24.1 µM (active)

Find IC50 for Cc1cc(C)n(CC(=O)N/N=C/c2cc(Br)cc([N+](=O)[O-])c2O)n1 on Aminopeptidase N (Plasmodium falciparum FcB1/Columbia, UniProt O96935) and write it down.
19.2 µM (active)
